Biological target: mouse ABHD16A (Mus musculus, UniProt Q9Z1Q2)
Construct: full-length cDNA of human ABHD16A (Open Biosystems Catalog # MHS6278-202758315) or murine ABHD16A (Open Biosystems Catalog # MMM1013-202760516); host or cells: HEK293T, transient, pCMV-SPORT6
Sequence (Q9Z1Q2 1-558): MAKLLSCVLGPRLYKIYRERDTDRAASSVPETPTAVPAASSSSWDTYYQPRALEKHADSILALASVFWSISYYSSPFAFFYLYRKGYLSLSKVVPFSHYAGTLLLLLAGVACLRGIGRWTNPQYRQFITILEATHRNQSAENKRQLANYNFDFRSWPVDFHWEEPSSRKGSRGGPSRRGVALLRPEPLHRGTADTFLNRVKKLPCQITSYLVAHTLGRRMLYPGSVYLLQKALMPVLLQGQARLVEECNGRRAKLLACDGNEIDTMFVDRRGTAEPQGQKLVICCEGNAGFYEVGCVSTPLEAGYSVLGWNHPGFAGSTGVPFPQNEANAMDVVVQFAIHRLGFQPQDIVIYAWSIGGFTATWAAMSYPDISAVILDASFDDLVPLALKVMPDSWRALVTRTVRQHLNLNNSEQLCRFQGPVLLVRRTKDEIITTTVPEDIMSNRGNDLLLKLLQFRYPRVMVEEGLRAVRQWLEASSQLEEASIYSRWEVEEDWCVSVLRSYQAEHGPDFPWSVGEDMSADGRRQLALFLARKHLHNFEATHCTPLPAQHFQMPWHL
Assay: PS substrate assay, mouse ABHD16A-transfected HEK293T proteome
Assay type: biochemical
Details: 30 min, 37° C.; C18:0/C18:2 PS 100 μM; read-out: IC50, PS-lipase activity
OBSERVABLE: IC50 (nM)
Use nM as the unit, but write only the number.

// CCCCCCCCCCCCCC1OC(=O)/C1=C\CCCCC(N)=O (stereo not shown) [KC01] : IC50 value = 520
